target: Diacylglycerol lipase-beta (Mus musculus) (UniProt Q91WC9); experiment: mouse DAGLb inhibition, FP-Rh labelling competition – biochemical, in-gel fluorescence, overexpressed mouse DAGLb, triazole urea library, late-stage follow-up (AID 602303); details: HEK293T membrane overexpressing mouse DAGLb, gel ABPP FP-Rh; at 0.5 µM; stronger effect = higher value
Sequence (Q91WC9 whole entry, looked up): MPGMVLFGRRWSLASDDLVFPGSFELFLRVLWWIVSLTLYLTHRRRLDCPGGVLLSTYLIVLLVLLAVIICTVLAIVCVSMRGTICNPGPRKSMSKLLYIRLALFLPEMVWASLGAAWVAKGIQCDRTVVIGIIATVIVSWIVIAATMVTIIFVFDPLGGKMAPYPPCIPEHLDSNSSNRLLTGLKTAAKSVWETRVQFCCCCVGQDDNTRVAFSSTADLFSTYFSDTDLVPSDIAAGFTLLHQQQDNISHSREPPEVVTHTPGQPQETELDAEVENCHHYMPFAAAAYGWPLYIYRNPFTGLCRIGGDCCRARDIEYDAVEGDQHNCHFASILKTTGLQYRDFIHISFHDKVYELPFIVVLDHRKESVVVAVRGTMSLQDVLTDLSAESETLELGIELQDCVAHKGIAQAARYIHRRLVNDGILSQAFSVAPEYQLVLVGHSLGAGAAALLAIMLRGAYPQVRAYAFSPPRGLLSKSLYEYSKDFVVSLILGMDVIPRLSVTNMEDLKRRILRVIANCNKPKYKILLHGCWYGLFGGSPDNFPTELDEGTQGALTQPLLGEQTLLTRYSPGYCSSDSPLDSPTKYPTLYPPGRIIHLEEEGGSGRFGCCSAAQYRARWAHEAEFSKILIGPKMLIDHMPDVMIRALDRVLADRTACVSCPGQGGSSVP
assay.metric: inhibition (%)

O=C(N1CCCCC1Cc1ccccc1)n1ncc(C(O)(c2ccccc2)c2ccccc2)n1 (stereo unspecified) :: 95
O=C(N1CCC(C(O)(c2ccccc2)c2ccccc2)CC1)n1ncc(C(O)(c2ccccc2)c2ccccc2)n1 :: 30
C=CCN(CC=C)C(=O)n1ccnn1 :: 25

P: O=C(N1CCC(C(O)(c2ccccc2)c2ccccc2)CC1)n1nccn1
Q: O=C(N1CCC(Cc2ccccc2)CC1)n1ncc(C(O)(c2ccccc2)c2ccccc2)n1
[Q] Parameter check: reported inhibition is higher for which label, P or Q ? Write the label of whichever entry you select.
[A] Q
(Q: 30%, P: 15%)

1: O=C(N1CCOCC1)n1ncc(C(O)(c2ccccc2)c2ccccc2)n1
2: O=C(n1ccnn1)n1c2ccccc2c2ccccc21
3: C=CCN(CC=C)C(=O)n1ncc(-c2ccccc2)n1
[Q] Could you please sort these 3 entries by inhibition from high to low? A complete answer lists every label in the requested sequence.
[A] 2, 1, 3
(2: 25%, 1: 15%, 3: 5%)

I: CC(C)(C)C1CCN(C(=O)n2ncc(C3(O)CCCCC3)n2)CC1
II: O=C(N1CCCC1)n1ccnn1
III: CC(C)(C)C1CCN(C(=O)n2ncc(C(O)(c3ccccc3)c3ccccc3)n2)CC1
IV: O=C(N1CCCC1)n1ncc(C(O)(c2ccccc2)c2ccccc2)n1
[Q] Sort ascending by inhibition. Enter labels, ranked according to the request.
[A] IV, I, II, III
(IV: 0%, I: 20%, II: 30%, III: 45%)

* * *

molecular target: Diacylglycerol lipase-beta (Mus musculus); assay: mouse DAGLb inhibition, FP-Rh labelling competition – biochemical, in-gel fluorescence, overexpressed mouse DAGLb, triazole urea library, late-stage follow-up (AID 602303); conditions: HEK293T membrane overexpressing mouse DAGLb, gel ABPP FP-Rh; at 0.5 µM; stronger effect = higher value
assay.metric: inhibition (%)

Below are worked cases with known answers.
O=C(N(c1ccccc1)c1ccccc1)n1ccnn1 :: 5
C=CCN(CC=C)C(=O)n1ncc(-c2ccc(OC(F)(F)F)cc2)n1 :: 50

a: CN(C)C(=O)n1ccnn1
b: COc1ccc2cc(-c3cnn(C(=O)N4CCCC4)n3)ccc2c1
c: CC(C)(O)c1cnn(C(=O)N2CCC(C(C)(C)C)CC2)n1
d: O=C(N1CCCC1)n1ncc(-c2cc(F)cc(F)c2)n1
e: COCCCC1CCCCN1C(=O)n1ncc(C(O)(c2ccccc2)c2ccccc2)n1 (centres undefined)
[Q] Sort the molecules on inhibition; start with the lowest figure. // respond by listing labels in the order requested
[A] a, e, d, b, c

* * *

target: Diacylglycerol lipase-beta (Mus musculus) (UniProt Q91WC9); assay: mouse DAGLb inhibition, FP-Rh labelling competition – biochemical, in-gel fluorescence, overexpressed mouse DAGLb, triazole urea library, late-stage follow-up (AID 602303); details: HEK293T membrane overexpressing mouse DAGLb, gel ABPP FP-Rh; at 0.5 µM; stronger effect = higher value
assay.metric: inhibition (%)

The following molecules have reported results that may help.
CN(C(=O)n1ccnn1)c1ccccc1 :: 25
O=C(N1CCOCC1)n1ccnn1 :: 40
CCC1CCCCN1C(=O)n1ncc(C(O)(c2ccccc2)c2ccccc2)n1 (configuration not stated) :: 10
O=C(N1CCCC1)n1ncc(C2(O)CCCCC2)n1 :: 25
O=C(OC(c1ccccc1)c1cnn(C(=O)N2CCCCC2)n1)N1CCCCC1 (configuration not stated) :: 15
C=CCN(CC=C)C(=O)n1ncc(C(O)(c2ccccc2)c2ccccc2)n1 :: 60
COc1ccc2cc(-c3cnn(C(=O)N4CCCCC4)n3)ccc2c1 :: 20
O=C(N1CCCCC1)n1ncc(C(O)c2ccccc2)n1 (configuration not stated) :: 5

P: O=C(N1CCOCC1)n1ncc(-c2ccccc2)n1
Q: CCN(CC)C(=O)n1ncc(C(O)(c2ccccc2)c2ccccc2)n1
R: CC(C)(C)C1CCN(C(=O)n2nccn2)CC1
S: O=C(N1CCCCC1)n1ncc(C(O)(c2ccccc2)c2ccccc2)n1
[Q] Please list these molecules in decreasing order of inhibition. Submit the labels in the order that the ranking request calls for.
[A] R, S, Q, P
(R: 35%, S: 10%, Q: 5%, P: 0%)

* * *

biological target: Diacylglycerol lipase-beta (Mus musculus); test: mouse DAGLb inhibition, FP-Rh labelling competition – biochemical, in-gel fluorescence, overexpressed mouse DAGLb, triazole urea library, late-stage follow-up (AID 602303); conditions: HEK293T membrane overexpressing mouse DAGLb, gel ABPP FP-Rh; at 0.5 µM; stronger effect = higher value
assay.metric: inhibition (%)

CC(C)(O)c1cnn(C(=O)N2CCCC2)n1 :: 25
O=C(N1CCOCC1)n1ncc(-c2cc(F)cc(F)c2)n1 :: 20

1: O=C(N1CCCC1)n1ncc(-c2ccc(-c3ccccc3)cc2)n1
2: O=C(N1CCOCC1)n1ncc(-c2ccc(OC(F)(F)F)cc2)n1
[Q] // pick larger inhibition from pair: 1 vs 2 Select an item and report its label.
[A] 2
(2: 40%, 1: 25%)

* * *

target: Diacylglycerol lipase-beta (Mus musculus); test: mouse DAGLb inhibition, FP-Rh labelling competition – biochemical, in-gel fluorescence, overexpressed mouse DAGLb, triazole urea library, late-stage follow-up (AID 602303); details: HEK293T membrane overexpressing mouse DAGLb, gel ABPP FP-Rh; at 0.5 µM; stronger effect = higher value
assay.metric: inhibition (%)

Below: 2 compounds and their reported inhibition.
O=C(N1CCCCC1)n1ncc(-c2ccc(Oc3ccccc3)cc2)n1 :: 40
CC1CCN(C(=O)n2ncc(C(O)(c3ccccc3)c3ccccc3)n2)CC1 :: 10

I: CC(C)(O)c1cnn(C(=O)N2CCCCC2)n1
II: O=C(N(c1ccccc1)c1ccccc1)n1ncc(C(O)(c2ccccc2)c2ccccc2)n1
III: COC1CCN(C(=O)n2ncc(C(O)(c3ccccc3)c3ccccc3)n2)CC1
[Q] Sequence the entries by inhibition, beginning with the highest number. Please write the labels in the order that was asked for.
[A] II, I, III

I: O=C(N1CCCC1)n1ncc(-c2ccccc2)n1
II: CCN(CC)C(=O)n1ccnn1
[Q] Out of I and II , name the one with the higher inhibition. // caller expects the label of the chosen entry
[A] I
(I: 35%, II: 0%)

I: CN1CCN(C(=O)n2ccnn2)CC1
II: O=C(N1CCCC1)n1ncc(-c2ccc(OC(F)(F)F)cc2)n1
[Q] Determine, for I and II , which has the greater value of inhibition. Give the chosen item's label as your response.
[A] I
(I: 35%, II: 15%)

1: C=CCN(CC=C)C(=O)n1ncc(-c2cc(F)cc(F)c2)n1
2: O=C(N1CCCC1)n1ncc(-c2ccc(Oc3ccccc3)cc2)n1
[Q] For the two items 1 and 2 , which reports the higher inhibition value? Give the chosen item's label as your response.
[A] 2

A: O=C(N1CCCC1)n1ncc(-c2ccc(Cl)c(Cl)c2)n1
B: O=C(N1CCCCC1)n1ccnn1
[Q] // which entry reports the smaller inhibition, A or B ? Answer by quoting the chosen item's label.
[A] B
(B: 20%, A: 30%)

P: COCC1CCCCN1C(=O)n1ncc(C(O)(c2ccccc2)c2ccccc2)n1 (configuration not stated)
Q: O=C(N1CCCC1)n1ncc(-c2ccc([N+](=O)[O-])cc2)n1
[Q] From the recorded data, which exceeds the other in inhibition: P or Q ? Respond with the label that goes with your answer.
[A] Q
